Reference source for all entries: patent US9834558B2

Emax reference
target: SIRT1 (Homo sapiens); experiment: Trp mass spectrometry assay of SIRT1 activation; type: biochemical; details: Trp peptide assay; maximum activity relative to control (100%); read-out: TRP MAX RESP (percent maximum fold activation)
Counter-ions that a name gives are not always drawn.

Cc1cc(-c2ccc3c(n2)N(C(=O)N2CCO[C@@H](C)C2)[C@H]2CCN3C2)ccn1 [hydrochloride] :: < 150%
O=C(Nc1ccccn1)N1c2nc(N3CCC[C@H]3C(F)(F)F)ccc2N2CCC[C@H]1C2 :: > 150%

Now for the molecule whose Emax we want.
So the reported Emax for Cc1cc(-c2ccc3c(n2)N(C(=O)Nc2nccnc2F)[C@H]2CCN3C2)ccn1 , on SIRT1 (Homo sapiens), turned out to be > 150%

====

target: SIRT1 (Homo sapiens, UniProt Q96EB6); test: Trp mass spectrometry assay of SIRT1 activation; type: biochemical; conditions: Trp mass spectrometry assay; concentration of test compound giving 150% activation of SIRT1
Metric Name: Tryp AVG EC1.5 (μM)

O=C(Nc1cnccn1)N1c2nc(-c3cc(F)c(F)c(F)c3)ccc2N2CC[C@H]1C2 :: C (C (EC1.5>25 μM))
O=C(Nc1ccc(F)cn1)N1c2nc(N3CCCC(C(F)(F)F)C3)ccc2N2CCC[C@@H]1C2 (stereo partly drawn) :: C (C (EC1.5>25 μM))

====

target: SIRT1 (Homo sapiens); experiment: Trp mass spectrometry assay of SIRT1 activation; type: biochemical; settings: Trp peptide assay; maximum activity relative to control (100%); read-out: TRP MAX RESP (percent maximum fold activation)
Metric Name: Emax

Below are worked cases with known answers.
Cc1cc(-c2ccc3c(n2)N(C(=O)N[C@@H](C)c2ccccn2)[C@H]2CCN3C2)ccn1 :: < 150%
Cc1cc(-c2ccc3c(n2)N(C(=O)Nc2ccn(C)n2)[C@H]2CCN3C2)ccn1 :: > 150%
CC(CO)NC(=O)c1ccc2c(n1)N(C(=O)Nc1ccccn1)[C@H]1CCN2C1 (stereo partly shown) :: > 150%
O=C(Nc1cnccn1)N1c2nc(-c3ccc(CO)nc3)ccc2N2CC[C@H]1C2 :: > 150%
Cc1cc(-c2ccc3c(n2)N(C(=O)Nc2ccc4[nH]cnc4n2)[C@H]2CCN3C2)ccn1 :: > 150%
O=C(Nc1ccccn1)N1c2nc(N3CCC[C@@H]3C(F)(F)F)ccc2N2CCC[C@H]1C2 :: > 150%
COCC(NC(=O)c1ccc2c(n1)N(C(=O)Nc1ccccn1)[C@H]1CCN2C1)C(F)(F)F (stereo partly shown) :: > 150%
O=C(Nc1cnccn1)N1c2nc(N3CCNCC3)ccc2N2CC[C@H]1C2 :: < 150%
Cc1cc(-c2ccc3c(n2)N(C(=O)N2CCN(C)CC2)[C@H]2CCN3C2)ccn1 :: < 150%
C[C@@H]1CN(c2ccc3c(n2)N(C(=O)Nc2cnccn2)[C@H]2CCN3C2)CCN1 :: < 150%

Briefly, Emax measured for C[C@H]1CN(c2ccc3c(n2)N(C(=O)Nc2cnccn2)[C@H]2CCN3C2)CCO1 : > 150%

Briefly, Emax measured for O=C(Nc1cnccn1)N1c2nc(-c3ccnc(C(F)(F)F)n3)ccc2N2CC[C@H]1C2 : > 150%

====

Biological target: SIRT1 (Homo sapiens)
Sequence (Q96EB6 1-747): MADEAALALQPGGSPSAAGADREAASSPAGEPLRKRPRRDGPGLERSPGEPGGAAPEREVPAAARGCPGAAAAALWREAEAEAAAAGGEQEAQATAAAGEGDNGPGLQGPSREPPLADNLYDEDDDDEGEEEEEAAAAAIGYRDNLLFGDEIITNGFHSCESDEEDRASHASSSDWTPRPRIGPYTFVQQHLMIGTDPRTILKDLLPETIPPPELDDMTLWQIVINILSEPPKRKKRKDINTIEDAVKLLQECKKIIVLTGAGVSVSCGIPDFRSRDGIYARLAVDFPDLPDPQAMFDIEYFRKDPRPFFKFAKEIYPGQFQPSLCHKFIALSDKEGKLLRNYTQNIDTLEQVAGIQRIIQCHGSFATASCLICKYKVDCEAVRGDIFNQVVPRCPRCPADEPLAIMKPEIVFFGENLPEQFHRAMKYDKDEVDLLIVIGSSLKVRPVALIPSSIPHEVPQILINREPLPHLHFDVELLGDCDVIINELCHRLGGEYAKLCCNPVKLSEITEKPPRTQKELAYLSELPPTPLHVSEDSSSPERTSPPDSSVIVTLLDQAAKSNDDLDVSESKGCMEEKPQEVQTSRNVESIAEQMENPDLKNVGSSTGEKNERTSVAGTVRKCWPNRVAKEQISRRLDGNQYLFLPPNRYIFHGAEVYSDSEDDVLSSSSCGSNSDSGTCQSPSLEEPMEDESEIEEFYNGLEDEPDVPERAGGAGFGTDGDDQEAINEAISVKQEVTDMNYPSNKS
Test: Trp mass spectrometry assay of SIRT1 activation
Format: biochemical
Conditions: Trp peptide assay; EC1.5 = concentration that results in 150% activation of SIRT1
Metric Name: TRP Activity (EC1.5)

Below are worked cases with known answers.
O=C(Nc1cncnc1)N1c2nc(-c3cncc(C(F)(F)F)c3)ccc2N2CCC[C@H]1C2 :: A (A (EC1.5<1 μM))
Cc1cc(-c2ccc3c(n2)N(C(=O)N2CCCCC2)[C@H]2CCN3C2)ccn1 :: C (C (EC1.5>25 μM))
Cc1cc(-c2ccc3c(n2)N(C(=O)Nc2ccc4c(c2)OCCCO4)[C@H]2CCN3C2)ccn1 :: A (A (EC1.5<1 μM))
Cc1cc(-c2ccc3c(n2)N(C(=O)N2CC[C@@H](C)C2)[C@H]2CCN3C2)ccn1 :: C (C (EC1.5>25 μM))

Now for the compound whose TRP Activity (EC1.5) we want.
Briefly, TRP Activity (EC1.5) measured for O=C(Nc1ccccn1)N1c2nc(-c3ccnc(C(F)(F)F)c3)ccc2N2CCC[C@H]1C2 : A (A (EC1.5<1 μM))

====

molecular target: SIRT1 (Homo sapiens, UniProt Q96EB6); test: Trp mass spectrometry assay of SIRT1 activation; type: biochemical; conditions: Trp peptide assay; EC1.5 = concentration that results in 150% activation of SIRT1
Metric Name: TRP Activity (EC1.5)

Below are worked cases with known answers.
O=C(Nc1cnccn1)N1c2nc(-c3ccc(CO)nc3)ccc2N2CC[C@H]1C2 :: B (B (EC1.5 1-25 μM))
O=C(NC1CCCOC1)c1ccc2c(n1)N(C(=O)Nc1ccccn1)[C@H]1CCN2C1 (some centres unmarked) :: B (B (EC1.5 1-25 μM))
Cc1cc(-c2ccc3c(n2)N(C(=O)NC2CC2)[C@H]2CCN3C2)ccn1 :: B (B (EC1.5 1-25 μM))
Cc1ccc(-c2ccc3c(n2)N(C(=O)NC2CCOCC2)[C@H]2CCN3C2)cn1 :: C (C (EC1.5>25 μM))
O=C(Nc1ccccn1)N1c2nc(N3CCC(C(F)(F)F)C3)ccc2N2CC[C@H]1C2 (some centres unmarked) :: B (B (EC1.5 1-25 μM))
Cc1cc(-c2ccc3c(n2)N(C(=O)Nc2cncnc2)[C@H]2CCCN3C2)ccn1 :: B (B (EC1.5 1-25 μM))

Briefly, TRP Activity (EC1.5) measured for Cc1cc(-c2ccc3c(n2)N(C(=O)Nc2cnc(C4CC4)cn2)[C@H]2CCN3C2)ccn1 : A (A (EC1.5<1 μM))

Briefly, TRP Activity (EC1.5) measured for Cc1ccc(-c2ccc3c(n2)N(C(=O)NCC(C)(C)C)[C@H]2CCN3C2)cn1 : C (C (EC1.5>25 μM))

====

molecular target: UniProtKB Q96EB6; assay: Trp mass spectrometry assay of SIRT1 activation; assay type: biochemical; conditions: Trp peptide assay; EC1.5 = concentration that results in 150% activation of SIRT1
Structures can show the parent of a compound that is named as a salt.
Metric Name: TRP Activity (EC1.5)

Below are worked cases with known answers.
O=C(Nc1ccccn1)N1c2nc(N3CCC[C@@H]3C(F)(F)F)ccc2N2CCC[C@H]1C2 :: A (A (EC1.5<1 μM))
O=C(Nc1ccncn1)N1c2nc(-c3ccnc(C(F)(F)F)c3)ccc2N2CCC[C@H]1C2 :: A (A (EC1.5<1 μM))
Cc1cc(-c2ccc3c(n2)N(C(=O)N2CCCC2)[C@H]2CCN3C2)ccn1 :: C (C (EC1.5>25 μM))
Cc1cc(-c2ccc3c(n2)N(C(=O)Nc2ccc4nn(C)cc4c2)[C@H]2CCCN3C2)ccn1 :: A (A (EC1.5<1 μM))
Cc1cc(-c2ccc3c(n2)N(C(=O)N2CCO[C@H](C)C2)[C@H]2CCN3C2)ccn1 [hydrochloride] :: C (C (EC1.5>25 μM))
O=C(Nc1ccc(F)cn1)N1c2nc(N3CCC[C@H](C(F)(F)F)C3)ccc2N2CCC[C@H]1C2 [drawing 1208] :: B (B (EC1.5 1-25 μM))

Now for the compound whose TRP Activity (EC1.5) we want.
Briefly, TRP Activity (EC1.5) measured for Cc1cc(-c2ccc3c(n2)N(C(=O)NC2CCCC2)[C@H]2CCN3C2)ccn1 : B (B (EC1.5 1-25 μM))
